Recorded values, source patent US6114371A.

- Test system: HUV-EC-C cells
- assay_explanation: HUV-EC-C assay, aFGF (3H-thymidine incorporation)
- Format: cell-based, human
- condition_info: Table 2; aFGF-stimulated HUV-EC-C; read-out: HUV-EC-C ATCC aFGF IC50
measured_attribute: pIC50
Give bare numbers, as −log10 of the molar value.

What measured pIC50 goes with NS(=O)(=O)c1ccc2c(c1)C(=Cc1cc3c([nH]1)CCCC3)C(=O)N2 ?
5.48

====

- assayed_system: lck protein kinase (Homo sapiens)
- Construct: made in house; host or cells: Schizosaccharomyces pombe strain SP200 (lysate)
- Sequence (P06239 whole entry): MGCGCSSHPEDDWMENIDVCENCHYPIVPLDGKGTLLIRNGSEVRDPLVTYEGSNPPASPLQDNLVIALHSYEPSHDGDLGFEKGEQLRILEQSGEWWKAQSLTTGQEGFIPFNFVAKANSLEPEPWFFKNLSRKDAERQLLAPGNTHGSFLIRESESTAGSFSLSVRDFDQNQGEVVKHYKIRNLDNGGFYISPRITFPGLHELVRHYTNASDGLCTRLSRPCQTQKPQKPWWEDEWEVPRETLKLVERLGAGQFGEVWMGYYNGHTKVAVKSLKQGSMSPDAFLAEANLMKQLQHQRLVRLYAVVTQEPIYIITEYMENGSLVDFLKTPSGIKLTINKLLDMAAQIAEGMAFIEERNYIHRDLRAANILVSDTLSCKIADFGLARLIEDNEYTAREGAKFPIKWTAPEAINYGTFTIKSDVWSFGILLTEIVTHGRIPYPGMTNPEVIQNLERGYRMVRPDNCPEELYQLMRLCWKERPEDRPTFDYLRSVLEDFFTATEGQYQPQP
- assay_explanation: Biochemical lck assay - ELISA
- condition_info: Table 7; 10 μM ATP, GST-zeta substrate
pIC50: −log10 of the molar value.
measured_attribute: pIC50

What measured pIC50 goes with CC(=O)c1ccc2c(c1)C(=Cc1cc3c([nH]1)CCCC3)C(=O)N2 ?
< 4.00

====

- Test system: FGFr
- assay_explanation: FGF-induced BrdU incorporation assay
- Type: cell-based
- condition_info: Table 8
measured_attribute: IC50

For orientation, consider the following solved cases.
{"substance_smiles": "COc1ccc(-c2ccc3c(c2)NC(=O)C3=Cc2cc3c([nH]2)CCCC3)cc1", "IC50": "> 50 µM"}
{"substance_smiles": "CCOc1cccc(-c2ccc3c(c2)NC(=O)C3=Cc2cc3c([nH]2)CCCC3)c1", "IC50": "> 50 µM"}
{"substance_smiles": "COc1ccccc1-c1ccc2c(c1)NC(=O)C2=Cc1cc2c([nH]1)CCCC2", "IC50": "43.6 µM"}
{"substance_smiles": "COc1ccccc1-c1ccc2c(c1)NC(=O)C2=Cc1[nH]c2c(c1C)CCCC2", "IC50": "> 50 µM"}

State the recorded IC50 for every item in the following list.
1. COc1ccc(-c2ccc3c(c2)NC(=O)C3=Cc2[nH]c3c(c2C)CCCC3)cc1
2. O=C1Nc2cc(-c3ccccc3)ccc2C1=Cc1cc2c([nH]1)CCCC2

1. > 50 µM
2. > 50 µM

====

- assayed_system: PDGFr (Homo sapiens, UniProt P09619)
- Sequence (P09619 33-1106): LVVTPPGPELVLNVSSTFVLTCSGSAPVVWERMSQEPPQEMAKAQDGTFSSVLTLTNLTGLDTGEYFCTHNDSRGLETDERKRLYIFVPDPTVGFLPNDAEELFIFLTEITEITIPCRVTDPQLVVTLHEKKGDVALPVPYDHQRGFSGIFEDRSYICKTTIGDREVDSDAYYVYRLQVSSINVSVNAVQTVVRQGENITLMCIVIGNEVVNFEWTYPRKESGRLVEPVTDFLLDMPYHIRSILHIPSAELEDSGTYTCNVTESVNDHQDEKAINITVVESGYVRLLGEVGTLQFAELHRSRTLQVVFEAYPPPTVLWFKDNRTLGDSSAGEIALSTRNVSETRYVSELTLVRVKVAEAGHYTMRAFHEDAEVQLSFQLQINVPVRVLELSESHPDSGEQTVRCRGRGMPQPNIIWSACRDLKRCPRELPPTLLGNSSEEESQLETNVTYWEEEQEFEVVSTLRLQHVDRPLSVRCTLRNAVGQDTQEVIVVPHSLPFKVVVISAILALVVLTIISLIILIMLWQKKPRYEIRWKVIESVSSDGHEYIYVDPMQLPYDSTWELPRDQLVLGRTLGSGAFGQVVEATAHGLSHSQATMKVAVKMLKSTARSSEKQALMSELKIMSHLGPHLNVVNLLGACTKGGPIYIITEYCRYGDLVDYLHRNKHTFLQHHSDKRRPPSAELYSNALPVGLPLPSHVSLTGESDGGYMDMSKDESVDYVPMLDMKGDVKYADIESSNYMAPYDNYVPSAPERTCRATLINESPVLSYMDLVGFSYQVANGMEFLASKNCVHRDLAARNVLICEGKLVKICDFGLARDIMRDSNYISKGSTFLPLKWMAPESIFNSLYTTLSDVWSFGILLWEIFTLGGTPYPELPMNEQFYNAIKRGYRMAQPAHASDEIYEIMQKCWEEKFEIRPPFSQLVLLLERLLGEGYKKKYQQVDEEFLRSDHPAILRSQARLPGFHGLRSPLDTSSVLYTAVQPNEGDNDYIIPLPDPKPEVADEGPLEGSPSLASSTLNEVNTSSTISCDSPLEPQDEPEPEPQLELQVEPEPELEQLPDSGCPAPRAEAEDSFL
- assay_explanation: PDGF-R ELISA
- Type: cell-based
- Parameters: cells (U1242, obtained from Joseph Schlessinger, NYU); endogenous in cells; host or cells: U1242
measured_attribute: pIC50
One number for each entry, as −log10 of the molar value.

State the recorded pIC50 for every item in the following list.
1. COc1ccc(-c2ccc3c(c2)NC(=O)C3=Cc2cc3c([nH]2)CCCC3)cc1
2. COc1ccccc1-c1ccc2c(c1)NC(=O)C2=Cc1cc2c([nH]1)CCCC2

1. 4.03
2. 4.91

====

- assayed_system: lck protein kinase (Homo sapiens)
- Construct: made in house; host or cells: Schizosaccharomyces pombe strain SP200 (lysate)
- assay_explanation: Biochemical lck assay - ELISA
- condition_info: Table 2
measured_attribute: pIC50
Answers are plain numbers, as −log10 of the molar value.

What measured pIC50 goes with NS(=O)(=O)c1ccc2c(c1)C(=Cc1cc3c([nH]1)CCCC3)C(=O)N2 ?
6.15

====

- assayed_system: src protein kinase (Gallus gallus, UniProt P00523)
- Construct: made in house; host or cells: Schizosaccharomyces pombe (yeast transformed with src, lysate)
- assay_explanation: Biochemical src assay - ELISA
- condition_info: Table 6; 5 μM ATP, biotinylated peptide substrate
Kindly state IC50 for each of the entries shown.
Give bare numbers, in µM.

{"substance_smiles": "O=C1Nc2cc(O)ccc2C1=Cc1cc2c([nH]1)CCCC2", "measured_attribute": "IC50", "data_value": 21}

Please examine the following record next.
What measured IC50 goes with CC(=O)c1ccc2c(c1)C(=Cc1cc3c([nH]1)CCCC3)C(=O)N2 ?
17.8

====

Kindly state pIC50 for each of the entries shown.
- assayed_system: EGFr (Homo sapiens)
- Sequence (P00533 25-1210): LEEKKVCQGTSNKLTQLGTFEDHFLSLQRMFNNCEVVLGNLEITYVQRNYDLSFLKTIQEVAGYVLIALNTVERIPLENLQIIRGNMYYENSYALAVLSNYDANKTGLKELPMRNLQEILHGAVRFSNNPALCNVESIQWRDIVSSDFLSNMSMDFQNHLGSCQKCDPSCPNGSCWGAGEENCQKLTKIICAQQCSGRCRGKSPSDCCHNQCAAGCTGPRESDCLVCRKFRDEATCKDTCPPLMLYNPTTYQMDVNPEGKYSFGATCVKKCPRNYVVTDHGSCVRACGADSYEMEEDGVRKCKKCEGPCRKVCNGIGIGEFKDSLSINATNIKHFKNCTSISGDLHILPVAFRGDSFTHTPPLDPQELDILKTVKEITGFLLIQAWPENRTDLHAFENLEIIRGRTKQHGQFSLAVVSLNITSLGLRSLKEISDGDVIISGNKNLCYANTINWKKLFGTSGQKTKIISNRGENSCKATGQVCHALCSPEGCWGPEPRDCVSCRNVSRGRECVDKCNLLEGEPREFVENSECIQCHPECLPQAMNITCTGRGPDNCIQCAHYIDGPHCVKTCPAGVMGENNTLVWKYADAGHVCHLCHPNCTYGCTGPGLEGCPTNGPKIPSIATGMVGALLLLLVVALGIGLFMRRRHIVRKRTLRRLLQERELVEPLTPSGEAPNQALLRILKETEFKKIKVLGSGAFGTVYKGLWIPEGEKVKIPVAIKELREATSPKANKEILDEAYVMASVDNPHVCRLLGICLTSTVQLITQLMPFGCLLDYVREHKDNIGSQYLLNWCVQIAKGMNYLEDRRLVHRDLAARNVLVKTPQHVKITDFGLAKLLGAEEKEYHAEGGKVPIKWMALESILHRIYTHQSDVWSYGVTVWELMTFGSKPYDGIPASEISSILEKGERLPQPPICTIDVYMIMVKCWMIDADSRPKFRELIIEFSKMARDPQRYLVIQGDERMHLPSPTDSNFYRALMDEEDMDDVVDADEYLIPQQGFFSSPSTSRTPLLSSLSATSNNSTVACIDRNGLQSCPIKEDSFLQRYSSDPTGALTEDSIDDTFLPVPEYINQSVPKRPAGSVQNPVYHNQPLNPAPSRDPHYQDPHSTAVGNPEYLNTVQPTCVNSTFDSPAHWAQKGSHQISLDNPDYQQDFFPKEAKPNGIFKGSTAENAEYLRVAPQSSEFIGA
- assay_explanation: EGF-induced BrdU incorporation assay
- Type: cell-based
- condition_info: Table 8
Numbers only, as −log10 of the molar value.

{"substance_smiles": "O=C1Nc2cc(O)ccc2C1=Cc1cc2c([nH]1)CCCC2", "measured_attribute": "pIC50", "data_value": 4.90}

State the recorded pIC50 for every item in the following list.
1. COc1ccccc1-c1ccc2c(c1)NC(=O)C2=Cc1cc2c([nH]1)CCCC2
2. CC(=O)c1ccc2c(c1)C(=Cc1cc3c([nH]1)CCCC3)C(=O)N2
3. COc1cccc(-c2ccc3c(c2)NC(=O)C3=Cc2cc3c([nH]2)CCCC3)c1

[4.47, 4.44, 4.50]

====

Kindly state IC50 for each of the entries shown.
- assayed_system: Myc-GyrB-FGFR fusion protein
- assay_explanation: Assay measuring the kinase activity of the FGF receptor (Myc-GyrB-FGFR fusion protein)
- condition_info: Table 5; 7 μM ATP

{"substance_smiles": "COc1cccc(-c2ccc3c(c2)NC(=O)C3=Cc2[nH]c3c(c2C)CCCC3)c1", "assayed_system": "Myc-GyrB-FGFR fusion protein", "IC50": "> 20 µM"}
{"substance_smiles": "COc1ccc(-c2ccc3c(c2)NC(=O)C3=Cc2[nH]c3c(c2C)CCCC3)cc1", "assayed_system": "Myc-GyrB-FGFR fusion protein", "IC50": "> 100 µM"}
{"substance_smiles": "COc1ccccc1-c1ccc2c(c1)NC(=O)C2=Cc1[nH]c2c(c1C)CCCC2", "assayed_system": "Myc-GyrB-FGFR fusion protein", "IC50": "> 100 µM"}
{"substance_smiles": "COc1ccc(-c2ccc3c(c2)NC(=O)C3=Cc2cc3c([nH]2)CCCC3)cc1", "assayed_system": "Myc-GyrB-FGFR fusion protein", "IC50": "> 100 µM"}
{"substance_smiles": "CCOc1cccc(-c2ccc3c(c2)NC(=O)C3=Cc2cc3c([nH]2)CCCC3)c1", "assayed_system": "Myc-GyrB-FGFR fusion protein", "IC50": "> 20 µM"}

State the recorded IC50 for every item in the following list.
1. COc1ccccc1-c1ccc2c(c1)NC(=O)C2=Cc1cc2c([nH]1)CCCC2
2. Cc1c(C=C2C(=O)Nc3cc(Br)ccc32)[nH]c2c1CCCC2
3. CC(=O)c1ccc2c(c1)C(=Cc1cc3c([nH]1)CCCC3)C(=O)N2
4. O=C1Nc2cc(-c3ccccc3)ccc2C1=Cc1cc2c([nH]1)CCCC2
5. O=C1Nc2cc(Br)ccc2C1=Cc1cc2c([nH]1)CCCC2
6. O=C1Nc2cc(Cl)ccc2C1=Cc1cc2c([nH]1)CCCC2

1. > 100 µM
2. > 20 µM
3. > 20 µM
4. > 100 µM
5. > 20 µM
6. > 20 µM

====

Kindly state pIC50 for each of the entries shown.
- assayed_system: FLK-1 receptor (Mus musculus, UniProt P35918)
- Construct: expressed in transfected cells; host or cells: NIH3T3 C7#3 cells
- Sequence (P35918 20-1345): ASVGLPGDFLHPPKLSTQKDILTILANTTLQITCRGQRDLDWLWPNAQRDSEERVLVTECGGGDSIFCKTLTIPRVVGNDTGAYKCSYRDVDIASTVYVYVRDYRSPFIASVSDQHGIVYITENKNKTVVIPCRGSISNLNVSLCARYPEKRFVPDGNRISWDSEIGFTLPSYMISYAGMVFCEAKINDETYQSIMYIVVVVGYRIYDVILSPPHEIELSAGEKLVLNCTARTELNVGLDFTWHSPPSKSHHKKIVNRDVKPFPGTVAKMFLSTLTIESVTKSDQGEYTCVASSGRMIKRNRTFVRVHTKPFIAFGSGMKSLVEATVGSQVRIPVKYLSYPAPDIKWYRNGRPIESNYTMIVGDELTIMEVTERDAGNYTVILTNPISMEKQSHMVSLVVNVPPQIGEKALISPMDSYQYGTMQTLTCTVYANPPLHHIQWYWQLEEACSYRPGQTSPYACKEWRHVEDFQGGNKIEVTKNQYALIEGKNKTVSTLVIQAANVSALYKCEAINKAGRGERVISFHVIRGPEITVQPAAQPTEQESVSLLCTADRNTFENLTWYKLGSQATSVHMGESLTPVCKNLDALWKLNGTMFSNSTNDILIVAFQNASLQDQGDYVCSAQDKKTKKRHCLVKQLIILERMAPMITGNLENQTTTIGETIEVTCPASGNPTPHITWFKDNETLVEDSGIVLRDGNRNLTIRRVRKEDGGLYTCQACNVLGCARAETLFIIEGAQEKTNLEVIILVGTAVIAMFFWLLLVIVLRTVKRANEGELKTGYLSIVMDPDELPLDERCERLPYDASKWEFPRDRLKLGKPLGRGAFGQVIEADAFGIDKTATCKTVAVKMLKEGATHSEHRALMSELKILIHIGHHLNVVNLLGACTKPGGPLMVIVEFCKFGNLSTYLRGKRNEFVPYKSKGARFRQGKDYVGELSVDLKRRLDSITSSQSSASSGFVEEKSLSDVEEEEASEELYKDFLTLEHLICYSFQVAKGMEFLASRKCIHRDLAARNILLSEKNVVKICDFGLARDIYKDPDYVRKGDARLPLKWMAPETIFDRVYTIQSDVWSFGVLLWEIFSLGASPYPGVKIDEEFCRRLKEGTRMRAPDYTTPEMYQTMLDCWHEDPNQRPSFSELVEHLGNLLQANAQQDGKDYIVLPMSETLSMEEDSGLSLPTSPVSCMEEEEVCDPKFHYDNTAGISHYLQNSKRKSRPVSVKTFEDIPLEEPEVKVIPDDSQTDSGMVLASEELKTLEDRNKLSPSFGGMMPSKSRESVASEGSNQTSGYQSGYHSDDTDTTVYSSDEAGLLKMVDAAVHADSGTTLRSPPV
- assay_explanation: FLK-1 ELISA (kinase activity of the FLK-1 receptor in engineered cells)
- Format: cell-based
- condition_info: Table 3; VEGF-stimulated NIH3T3 C7#3 cells; read-out: FLK-1 IC50
Numbers only, as −log10 of the molar value.

{"substance_smiles": "O=C1Nc2cc(O)ccc2C1=Cc1cc2c([nH]1)CCCC2", "data_value": 4.77}

What measured pIC50 goes with Cc1c(C=C2C(=O)Nc3cc(Br)ccc32)[nH]c2c1CCCC2 ?
5.66

====

- assayed_system: PDGFr (Homo sapiens, UniProt P09619)
- assay_explanation: PDGF-induced BrdU incorporation assay
- Type: cell-based
- Parameters: expressed in transfected cells; host or cells: 3T3 cell line
measured_attribute: IC50 (nM)
One number for each entry, in nM.

What measured IC50 goes with COc1ccccc1-c1ccc2c(c1)NC(=O)C2=Cc1cc2c([nH]1)CCCC2 ?
1060

====

- assayed_system: FLK-1 receptor (Mus musculus, UniProt P35918)
- Construct: expressed in transfected cells; host or cells: NIH3T3 C7#3 cells
- assay_explanation: FLK-1 ELISA (kinase activity of the FLK-1 receptor in engineered cells)
- Type: cell-based
- condition_info: Table 2; read-out: FLK-1R IC50
measured_attribute: IC50

What measured IC50 goes with NS(=O)(=O)c1ccc2c(c1)C(=Cc1cc3c([nH]1)CCCC3)C(=O)N2 ?
> 100 µM

====

Kindly state IC50 for each of the entries shown.
- assayed_system: PDGFr (Homo sapiens)
- assay_explanation: PDGF-R ELISA
- Format: cell-based
- Parameters: cells (U1242, obtained from Joseph Schlessinger, NYU); endogenous in cells; host or cells: U1242
- condition_info: Table 4; ligand-stimulated U1242 cells; read-out: PDGF-R IC50

For orientation, consider the following solved cases.
{"substance_smiles": "COc1ccc(-c2ccc3c(c2)NC(=O)C3=Cc2[nH]c3c(c2C)CCCC3)cc1", "IC50": "> 100 µM"}
{"substance_smiles": "O=C1Nc2cc(-c3ccccc3)ccc2C1=Cc1cc2c([nH]1)CCCC2", "IC50": "70.6 µM"}

State the recorded IC50 for every item in the following list.
1. Cc1c(C=C2C(=O)Nc3cc(Br)ccc32)[nH]c2c1CCCC2
2. CC(=O)c1ccc2c(c1)C(=Cc1cc3c([nH]1)CCCC3)C(=O)N2
3. O=C1Nc2cc(O)ccc2C1=Cc1cc2c([nH]1)CCCC2
4. O=C1Nc2cc(Br)ccc2C1=Cc1cc2c([nH]1)CCCC2

["40 µM", "> 100 µM", "47.2 µM", "> 100 µM"]
